# Test system: A498 renal
# ASSAY_TEXT: NCI-60 one-dose screen, 48 h (100 = growth as untreated, 0 = no growth, -100 = all killed)
# MEASUREMENT_PARAMETERS: 10 µM
This is part of a sample that, as a whole, favours compounds with a hit. Of some 83,000 tested, about 20% had one in any assay.
MEASURED_METRIC: growth (%)
Give bare numbers, in %.

Below are worked cases with known answers.
1. C#Cc1ccc(-n2c(/C=C/c3ccc4ccccc4n3)nc3ncccc3c2=O)cc1 -69.1
2. Cc1ccc(CC#N)cc1C 136
3. Clc1ccc(Nc2ccnc(NCCNc3ccnc4cc(Cl)ccc34)n2)cc1 17.9
4. CN1CCCNc2c(c(=O)c2=O)NCCCN(C)CCCNc2c(c(=O)c2=O)NCCCN(C)CCCNc2c(c(=O)c2=O)NCCCN(C)CCCNc2c(c(=O)c2=O)NCCCN(C)CCCNc2c(c(=O)c2=O)NCCCN(C)CCCNc2c(c(=O)c2=O)NCCCN(C)CCCNc2c(c(=O)c2=O)NCCC1 72.5

Consider the additional compound presented here.
Briefly, growth measured for O=C1/C(=C\c2ccccc2)CN(C(=O)c2ccccc2F)C/C1=C\c1ccccc1 : 45

----------
# Test system: HCT-116 colon
# ASSAY_TEXT: NCI-60 one-dose screen, 48 h (100 = growth as untreated, 0 = no growth, -100 = all killed)
# MEASUREMENT_PARAMETERS: 10 µM
This is part of a sample that, as a whole, favours compounds with a hit. Of some 83,000 tested, about 20% had one in any assay.
MEASURED_METRIC: growth (%)
Answers are plain numbers, in %.

MOLECULE	UNIT_ABBREVIATION	growth
Cc1cccc2c1O/C(=C\c1ccc([N+](=O)[O-])o1)C2=O	%	-53.2
COc1ccc2c(c1)C(=O)c1c-2c(OCCN(C)C)nc2cc(OC)c(OC)cc12	%	30
COc1ccc(NC2=NC(C)(CO)CS2)cc1 (stereo unspecified)	%	102

Take each entry in turn and give its growth.
1. CC(=O)[C@H]1CC[C@H]2[C@@H]3CCC4=CC(=O)C=C[C@]4(C)[C@H]3CC[C@]12C
2. Cc1nc2c(c(=O)[nH]1)OCN(Cc1ccccc1)C2
3. C[C@]12CC[C@@H]3c4ccc(O)cc4C[C@@H](O)[C@H]3[C@@H]1CC[C@@H]2O

Output:
[85.6, 100, 105]

----------
# Tested on: SF-295 CNS
# ASSAY_TEXT: NCI-60 one-dose screen, 48 h (100 = growth as untreated, 0 = no growth, -100 = all killed)
# MEASUREMENT_PARAMETERS: 10 µM
This is part of a sample that, as a whole, favours compounds with a hit. Of some 83,000 tested, about 20% had one in any assay. The source made the active and inactive calls. How the source made its calls: active means growth percent below 10; inactive means the rest.
MEASURED_METRIC: growth

COMPOUND	growth
CCCCCC(=O)c1ccc(OCCCN2CCN(C(=O)OCC)CC2)cc1	81.8% (inactive)

Take each entry in turn and give its growth.
1. CC/C(=C(/c1ccc(OCCN(C)C)cc1)c1ccc(OC(=O)CCCCC(=O)c2c(C)[nH]c(/C=C3\N=C(c4ccc[nH]4)C=C3OC)c2C)cc1)c1ccccc1
2. CN(C)CCN1C(=O)c2cccc3c(-c4ccc5ncn(C6CCCCC6)c5c4)ccc(c23)C1=O
3. COc1cc(/C(=C2/O[C@@H]([C@H]3COC(C)(C)O3)[C@H]3OC(C)(C)O[C@@H]23)c2ccc3ccccc3c2)cc(OC)c1OC
4. CSc1nn(-c2ccccc2)c2ncnc(Oc3ccccc3)c12
5. COc1ccc(C(=O)/C=C/c2cc(-c3cc(OC)c(OC)c(OC)c3)n[nH]2)cc1

Output:
["72.6% (inactive)", "23.1% (inactive)", "46.6% (inactive)", "101% (inactive)", "-23.8% (active)"]
